# TEST TARGET: JAK3 (Homo sapiens (Human))
# Sequence (P52333 822-1111): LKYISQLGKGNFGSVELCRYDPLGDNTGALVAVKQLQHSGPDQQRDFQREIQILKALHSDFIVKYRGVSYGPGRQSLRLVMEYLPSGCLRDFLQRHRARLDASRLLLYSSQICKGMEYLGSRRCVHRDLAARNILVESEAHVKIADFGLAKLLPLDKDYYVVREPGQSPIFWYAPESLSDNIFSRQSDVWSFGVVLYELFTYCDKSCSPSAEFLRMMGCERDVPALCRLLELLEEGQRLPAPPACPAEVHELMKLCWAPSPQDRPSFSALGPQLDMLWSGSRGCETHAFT
# RUN DESCRIPTION: JAK Caliper Enzyme Assay at 1 mM ATP, JAK3
# Assay type: biochemical
# CONDITION LABEL: JAK Caliper enzyme assay
pIC50: −log10 of the molar value.
QUANTITY KIND: pIC50

QUERY: Give the reported value of pIC50 for this record: N#CC[C@]1(n2ncc(-c3cc(-c4cnc5c(N)nccn45)cc4ncccc34)n2)C[C@@H](C#N)C1
RESULT: < 5.00

QUERY: Kindly indicate its recorded pIC50. Item: N#CC[C@]1(n2cc(-c3cc(-c4cn[nH]c4)cc4nccn34)cn2)C[C@@H](C#N)C1
RESULT: < 5.00

QUERY: Output measured pIC50 for this item: N#CCC1(n2ncc(-c3cc(-c4cccc5c4NC(=O)C5)cc4ncccc34)n2)CC(C#N)C1 (stereo not drawn)
RESULT: < 5.00

QUERY: Complete the entry with pIC50 for CS(=O)(=O)N1CC(CC#N)(n2ncc(-c3cc(-c4cccc(CO)c4F)cc4ncccc34)n2)C1
RESULT: < 5.00

QUERY: Give pIC50 for N#CC[C@]1(n2ncc(-c3cc(-c4cnccn4)cc4ncccc34)n2)C[C@@H](C#N)C1
RESULT: < 5.00

QUERY: Quick one: give measured pIC50 for CS(=O)(=O)N1CC(CC#N)(n2ncc(-c3cc(-c4cncnc4)cc4ncccc34)n2)C1
RESULT: < 5.00

QUERY: Identify pIC50 associated with the molecule COc1ncc(-c2cc(-c3cnn(C4(CC#N)CN(S(C)(=O)=O)C4)n3)c3cccnc3c2)cn1
RESULT: < 5.00

QUERY: Given the molecule N#CCC1(n2ncc(-c3cc(-c4ccc(C(=O)O)cc4)cc4ncccc34)n2)CC(C#N)C1 (stereo not drawn) , write its reported pIC50.
RESULT: < 5.00

QUERY: For Cn1cc(-c2cn3ncnc3c(-c3cnn(C4(CC#N)CN(S(C)(=O)=O)C4)c3)n2)cn1 , write its pIC50.
RESULT: < 5.00

QUERY: Identify measured pIC50 corresponding to N#CCC1(n2ncc(-c3cc(-c4cccc(C(N)=O)c4)cc4ncccc34)n2)CC(C#N)C1 (stereo not drawn)
RESULT: < 5.00

QUERY: Look up and report measured pIC50 for this entry: Cn1cc(-c2cc3nccnc3c(-c3cnn(C4(CC#N)CN(CC#N)C4)c3)n2)cn1
RESULT: 5.43

QUERY: State, in one line, measured pIC50 of N#CC[C@]1(n2ncc(-c3cc(-c4cnc(N)cn4)cc4ncccc34)n2)C[C@H](C#N)C1
RESULT: < 5.00

QUERY: Give me measured pIC50, please, for this molecule: Cc1ncc(N)nc1-c1cc(-c2cnn([C@]3(CC#N)C[C@H](C#N)C3)n2)c2cccnc2c1
RESULT: < 5.00

QUERY: Read the entry CS(=O)(=O)N1CC(CC#N)(n2ncc(-c3cc(-c4cccc(CO)c4)cc4ncccc34)n2)C1 and write its reported pIC50.
RESULT: < 5.00

QUERY: // fetch pIC50 given entry CS(=O)(=O)N1CC(CC#N)(n2ncc(-c3cc(-c4ccc(F)c(CO)c4)cc4ncccc34)n2)C1
RESULT: < 5.00

QUERY: Please report the measured pIC50 for CS(=O)(=O)Nc1cccc(-c2cc(-c3cnn(C4(CC#N)CC(C#N)C4)n3)c3cccnc3c2)n1 (stereo not drawn) [Example 372]
RESULT: 5.22

QUERY: Return pIC50 (reported value) for this molecule: Cn1cc(-c2cc(-c3cnn(C4(CC#N)CN(S(C)(=O)=O)C4)n3)c3cccnc3c2)ccc1=O
RESULT: < 5.00

QUERY: Fill in reported pIC50 for this entry: N#CC[C@]1(n2ncc(-c3cc(-c4ncc(OCCO)cn4)cc4ncccc34)n2)C[C@@H](C#N)C1
RESULT: < 5.00

QUERY: Give the reported value of pIC50 for this record: Cn1cc(-c2cc(-c3ccn(C4(CC#N)CN(CC(F)(F)F)C4)n3)n3ccnc3c2)cn1
RESULT: < 5.00

QUERY: Answer with reported pIC50 of N#CC[C@]1(n2ncc(-c3cc(-c4cnc5ncccn45)cc4ncccc34)n2)C[C@@H](C#N)C1
RESULT: < 5.00

QUERY: Output pIC50 of COc1nc(-c2cc(-c3cnn([C@]4(CC#N)C[C@H](C#N)C4)n3)c3cccnc3c2)ccc1N
RESULT: 5.37

QUERY: Indicate its recorded pIC50; the molecule in question is CS(=O)(=O)N1CC(CC#N)(n2ncc(-c3cc(-c4c[nH]c5nccc-5c4)cc4ncccc34)n2)C1
RESULT: < 5.00

QUERY: State its pIC50: N#CC[C@]1(n2ncc(-c3cc(-c4cn5ccnc5c(N)n4)cc4ncccc34)n2)C[C@@H](C#N)C1
RESULT: < 5.00

QUERY: Answer with the recorded pIC50 of CS(=O)(=O)N1CC(CC#N)(n2ncc(-c3cc(-c4ccc(=O)[nH]c4)cc4ncccc34)n2)C1 only.
RESULT: < 5.00

QUERY: Return reported pIC50. Input molecule: N#CC[C@]1(n2ncc(-c3cc(-c4cnc(N)nc4)cc4ncccc34)n2)C[C@@H](C#N)C1
RESULT: < 5.00

QUERY: Return the recorded pIC50 value; entry: Cn1cc(-c2cc(-c3cnn(C4(CC#N)CN(CC(F)(F)F)C4)c3)n3ncnc3c2)cn1
RESULT: < 5.00

QUERY: Note down pIC50 recorded for CS(=O)(=O)N1CC(CC#N)(n2ncc(-c3cc(-c4cccc(CN)c4)cc4ncccc34)n2)C1
RESULT: < 5.00

QUERY: Note pIC50 for the molecule shown: Cn1cc(-c2cc(-c3ccn(C4(CC#N)CN(CC(F)(F)F)C4)n3)n3ncnc3c2)cn1
RESULT: 5.14

QUERY: Entry N#CC[C@]1(n2ncc(-c3cc(-c4ccc(C(=O)O)cc4)cc4ncccc34)n2)C[C@H](C#N)C1 needs its pIC50 filled in; supply it.
RESULT: < 5.00

QUERY: Give the reported pIC50 for this molecule. CS(=O)(=O)Nc1ccc(-c2cc(-c3cnn(C4(CC#N)CC(C#N)C4)n3)c3cccnc3c2)nc1 (stereo not drawn) [Example 374]
RESULT: 5.54

* * *

# TEST TARGET: UniProt:P29597
# RUN DESCRIPTION: JAK Caliper Enzyme Assay at 1 mM ATP, TYK2
# Format: biochemical
Consider the following compounds; for each one, report its IC50.
Write the answer as a number in nM, unit excluded.

QUERY: Look up UniProt:P29597 data: IC50 of Cn1cc(-c2cc3ncccc3c(-c3ccn(C4(CC#N)CN(S(C)(=O)=O)C4)n3)n2)cn1 [Example 104] , then report it.
RESULT: 19

QUERY: Print UniProt:P29597 IC50 for Cn1nc(-c2cc3ncccc3c(-c3ccn([C@]4(CC#N)C[C@H](C#N)C4)n3)n2)cc1N [Example 66] .
RESULT: 7

QUERY: Identify measured IC50 obtained with UniProt:P29597 for CS(=O)(=O)N1CC(CC#N)(n2ccc(-c3nc(-c4ccn[nH]4)cc4ncccc34)n2)C1 [Example 17] .
RESULT: 44

QUERY: Param request: IC50 | system UniProt:P29597 | item N#CCC1(n2cc(-c3nc(-c4cn[nH]c4)cc4ncccc34)cn2)CN(CC(F)(F)F)C1 [Example 1]
RESULT: 15

* * *

# TEST TARGET: TYK2 (Homo sapiens (Human))
# Sequence (P29597 897-1176): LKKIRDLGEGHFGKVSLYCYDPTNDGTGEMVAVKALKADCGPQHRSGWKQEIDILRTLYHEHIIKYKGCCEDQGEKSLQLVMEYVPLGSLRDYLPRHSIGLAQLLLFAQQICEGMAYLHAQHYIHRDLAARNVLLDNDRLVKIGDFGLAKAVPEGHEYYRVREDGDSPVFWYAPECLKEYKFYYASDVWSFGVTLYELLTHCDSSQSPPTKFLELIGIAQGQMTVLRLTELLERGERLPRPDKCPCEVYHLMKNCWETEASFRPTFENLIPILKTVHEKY
# RUN DESCRIPTION: JAK Caliper Enzyme Assay at 1 mM ATP, TYK2
# Type: biochemical
# CONDITION LABEL: JAK Caliper enzyme assay
pIC50: −log10 of the molar value.
Answer 0 if pIC50 is under 7, and 1 if it is 7 or more.

QUERY: Quick check, pIC50 >= 7? N#CC[C@]1(n2ncc(-c3cc(-c4cnc(N)cn4)cc4ncccc34)n2)C[C@@H](C#N)C1
RESULT: 0

QUERY: Identify whether the reported pIC50 of the following molecule is 7 or greater: COc1nc(-c2cc(-c3cnn([C@]4(CC#N)C[C@H](C#N)C4)n3)c3cccnc3c2)cnc1N
RESULT: 0

QUERY: Does the molecule Cc1nc2ccc(-c3cc(-c4cnn([C@]5(CC#N)C[C@H](C#N)C5)n4)c4cccnc4c3)nc2[nH]1 have recorded pIC50 that is 7 or more?
RESULT: 1

QUERY: Textbook exercise: given the entry N#CC[C@]1(n2cc(-c3cc(-c4cc[nH]n4)cc4nccn34)cn2)C[C@H](C#N)C1 , state whether its pIC50 is greater than or equal to 7.
RESULT: 0

QUERY: Could you please find out whether CS(=O)(=O)N1CC(CC#N)(n2cnc(-c3cc(-c4cn[nH]c4)cc4ncccc34)n2)C1 has pIC50 that meets 7 or exceeds it?
RESULT: 0

QUERY: Is pIC50 for Cc1ncc(N)nc1-c1cc(-c2cnn([C@]3(CC#N)C[C@H](C#N)C3)n2)c2cccnc2c1 at or above 7?
RESULT: 0

QUERY: Assess whether reported pIC50 for N#CC[C@]1(n2ncc(-c3cc(-c4cnc5c(N)nccn45)cc4ncccc34)n2)C[C@@H](C#N)C1 sits at 7 or higher.
RESULT: 0

QUERY: Decide: pIC50 of CS(=O)(=O)N1CC(CC#N)(n2ncc(-c3cc(-c4ccc5c(c4)C(=O)NC5)cc4ncccc34)n2)C1 >= 7?
RESULT: 0

QUERY: Threshold query (pIC50 >= 7) on CS(=O)(=O)N1CC(CC#N)(n2cnc(-c3cc(-c4ccc(=O)[nH]c4)cc4ncccc34)n2)C1
RESULT: 0

QUERY: Evaluate N#CC[C@]1(n2ncc(-c3cc(-c4cnccn4)cc4ncccc34)n2)C[C@@H](C#N)C1 : pIC50 at minimum 7?
RESULT: 0

QUERY: // inclusive: pIC50 at least 7? input: Cc1cc(-c2cc(-c3cnn([C@]4(CC#N)C[C@@H](C#N)C4)c3)n3ccnc3c2)[nH]n1
RESULT: 1

QUERY: Is it the case that N#CC[C@]1(n2ncc(-c3cc(-c4cnc(N)nc4)cc4ncccc34)n2)C[C@@H](C#N)C1 has pIC50 reaching or exceeding 7?
RESULT: 0

QUERY: Tell me whether pIC50 is at least 7 here: N#CC[C@]1(n2ncc(-c3cc(-c4cncc(N)n4)cc4ncccc34)n2)C[C@@H](C#N)C1
RESULT: 0
